Each record here notes measured normalized RNA/DNA level without ligand (log10).
B1: library; a variant is named by its letters at N, in order (parent)
chain: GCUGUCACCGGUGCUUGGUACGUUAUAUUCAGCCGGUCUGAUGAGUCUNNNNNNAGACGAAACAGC

Variants of: B1
Assay: normalized RNA/DNA level without ligand (relative to sTRSVctl = 100) (log10 (% of sTRSVctl)); HEK293T overexpressing SLC46A1; higher = less ribozyme self-cleavage, higher mRNA level
Conditions: without (6R,S)-folinic acid; ligand present: no
# answer = number (no unit)

Consider the reported normalized RNA/DNA level without ligand (log10) for these variants:
INSERT INTO measurements (sequence_change, data_value) VALUES
  ('AUCAGA', 2.05),
  ('GCCCUA', 2.03),
  ('CUGGUG', 1.98);

In the following, a different variant is considered.
IN: Identify measured normalized RNA/DNA level without ligand (log10) corresponding to CCGUCG
OUT: 2.02
